# Tested on: TO-N3-2 (biotin conjugate)
# experiment summary: pull-down binding Z-score (relative to library population); higher = stronger binding
# condition details: RNA library: Library-2
Class T: pull-down binding Z-score at least 0.5. Class F: pull-down binding Z-score below 0.5.

Examples from the recorded data:
query sequence	tested system	class assignment
CCAUUUGCUAUGCAAAUGG	TO-N3-2 (biotin conjugate)	F
GUCUGGGAUCAACGAGUCAGCGGAC [IAV_invivo_PB1_2_Motif_28+IAV_invivo_PB1_2_Motif_28]	TO-N3-2 (biotin conjugate)	F
UGCAGCAGAAACGCUCA [SHAPE_invitro_SARS-CoV-2_Motif_303]	TO-N3-2 (biotin conjugate)	T

Ask | Does the sequence UGGCCUGGCAGUGCGUCGGAAGAACAGGGCGGGUGGGGCC [hsa-mir-4792] have recorded pull-down binding Z-score that is 0.5 or more?
Reply | T

Ask | Does the sequence GUAUGAGUGCCACAGAGCCGUCAUAA [hsa-mir-9-3] have recorded pull-down binding Z-score that is 0.5 or more?
Reply | T

Ask | Does the sequence GCGCUGCCAGAAACUGGCUGAGCGC [bulge-UG] have recorded pull-down binding Z-score that is 0.5 or more?
Reply | F

Ask | Does the sequence CUCAGGACAGCGGGUGUCAGCUUGCCUGAC [hsa-mir-6859-1_6859-3_6859-2_6859-4] have recorded pull-down binding Z-score that is 0.5 or more?
Reply | T

* * *

# Tested on: TO-N3-2 (biotin conjugate)
# experiment summary: pull-down binding Z-score (relative to library population); higher = stronger binding
# condition details: RNA library: Library-2
measured property: pull-down binding Z-score
One number for each entry.

Check out these entries, answers already filled in.
query sequence	tested system	measured property	meas value
GUGGAUGGUUAUGUUCAC	TO-N3-2 (biotin conjugate)	pull-down binding Z-score	-0.628
UGACCAGUCUUCUUACAUCGUUGAUAGUGUUACAGUGAAGAAUGGUUCCAUCCAUCUUUACUUUGAUAAAGCUGGUCA	TO-N3-2 (biotin conjugate)	pull-down binding Z-score	-0.863
AAGAGGUAAGAAGAAGUGAAGCCCUCUU [hsa-mir-4778]	TO-N3-2 (biotin conjugate)	pull-down binding Z-score	0.281
UAUGAGGUUUAGAAGAGCUUUUGGUGAAUACAGUCAUGUAGUUGCCUUUAAUACUUUACUAUUCCUUAUG	TO-N3-2 (biotin conjugate)	pull-down binding Z-score	-0.84
GUGGAGUCGGGUCAGACUUCAA [hsa-mir-378c]	TO-N3-2 (biotin conjugate)	pull-down binding Z-score	0.384
UGUUCACUUUCUAUAUGAUGAAUA [hsa-mir-656]	TO-N3-2 (biotin conjugate)	pull-down binding Z-score	-1.7

For the 3 sequences below, give their pull-down binding Z-score values.
1. GUUACUAAUCUAACUAAUUGUAAC [hsa-mir-582]
2. GCAGCACUGUGCUGGGGAUGUUGC [hsa-mir-1301]
3. UGAUGCAGCCAUGCAACGUAAGUUGGAAAAGAUGGCUGAUCA

Reply |
1. -0.722
2. 0.858
3. -0.974

Notebook: `GGCGAUUUUGUUAAAGCCACUUGCGAAUUUUGUGGCACUGAGAAUUUGACUAAAGAAGGUGCCACUACUUGUGGUUACUUACCCCAAAAUGCU` , pull-down binding Z-score read as 0.59

* * *

# Tested on: TO-N3-2 (biotin conjugate)
# experiment summary: pull-down binding Z-score (relative to library population); higher = stronger binding
# condition details: RNA library: Library-2
measured property: pull-down binding Z-score
Give bare numbers.

Check out these entries, answers already filled in.
query sequence	pull-down binding Z-score
UUUUUUUCGCUUUAUUUGUGACGAAAC [hsa-mir-543]	-0.882
CUGUGCAGGGCCAACUGUGCACAC [hsa-mir-3681]	1.14
GGCCAUCUGCUAUUCGUCCACCAACCUGACUUGAUCC [hsa-mir-7111]	0.477
CGGCGGGCACGUAGUGUAGCUAGUCAAUCCAUCAUUGCCUACACUAUGUCACUUGGUG [SHAPE_invitro_SARS-CoV-2_Motif_429]	1.07
AUGCUUGGAACAGGAAGAGAAUCAGCAACUGUGUUGCUGAUUAUUCUGUCCUAUAUAAUUCCGCAU [DMSMaPseq_invitro_SARS-CoV-2_Motif_399]	-0.139

For the 2 sequences below, give their pull-down binding Z-score values.
1. UCUUAGACUAUUACAAGA [hsa-mir-3672]
2. UGUUGUAACAACA

Reply |
-0.526
-1.35

For the 8 sequences below, give their pull-down binding Z-score values.
1. GAGAGUGCUUUCUGAAUGCAAUGC [hsa-mir-501]
2. AAGAAAGUUGAUGGUGUUGUCCAACAAUUACCUGAAACUUACUU [DMSMaPseq_invitro_SARS-CoV-2_Motif_358]
3. CCAUUAUUUUUAAUAAUUAUAAUAAUGG [hsa-mir-548s]
4. AGUGUUUGCCUAGGUUCUUUAAUCUACUCAACCGCU
5. AAGUAGUUGGCGUCUUCAGAGACACUU [hsa-mir-643]
6. GCUAACUGUGACCUUAGC [hsa-mir-4729]
7. UGUGUGCUGAGAAAAUUCACACA [hsa-mir-5580]
8. CUAUACUGUUACUAGAUCAGGCAUUAGUGUCUGAUGUUGGUGAUAGUGCGG

Reply |
0.716
-1.44
-1.2
-0.432
0.0279
-0.478
-0.274
-0.582

For the 6 sequences below, give their pull-down binding Z-score values.
1. GAUUCAGAUCUUAAUGACUUUGUC [SHAPE_invivo_SARS-CoV-2_Motif_393]
2. GUCUCCUACUAAAUUAAAUGAUCUCUGCUUUACUAAUGUCUAUGCAGAUUCAUUUGUAAUUAGAGGUGAU
3. AGGGCAGGGGUGUGGCU [hsa-mir-4751]
4. GCUUGGAGAAAAGC [SHAPE_invitro_SARS-CoV-2_Motif_326]
5. GGUGCAGUCAGUCCUAGCUC [hsa-mir-3135b]
6. UUUGCCUGUAAAAGUAAUGGCAAA [hsa-mir-548d-1]

Reply |
[-0.794, -0.628, 1.93, -0.491, 1.06, -0.552]
